Molecular target: c-Src SH2;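 further: peptide library displayed on the E. coli surface as eCPX fusions, selected cells deep-sequenced, score is each peptide's frequency after selection divided by its frequency in the input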
Test: SH2 binding enrichment of the phosphorylated peptide, bacterial display (enrichment ratio); higher = better substrate or ligand; peptides without Tyr show the background
measure-name: SH2 binding enrichment
Give bare numbers.

Please review the following examples before continuing.
PSDLLYIPDIQ [ITGA2B_Y845_L847P]; 0.539
TFWKKYRTFWK [CCDC70_Y125]; 0.517
RGEEPYTKKAL [TTC21B_Y160_K157E]; 0.4
PLRAFYLIARV [HLCS_Y635_D634Y_YF]; 0.6
IHFAIYFLKFS [ARMC9_Y107_L108F_YF]; 1.12

Look up SH2 binding enrichment for the entries below, preserving their order.
1. NPEACYQRLKK [TK2_Y190_T188A]
2. SPYAVYLFFTF [RPGRIP1_Y826_R827L]
3. GKVFIYHGSSL [ITGA7_Y458]
4. RTIPDYTSFNT [EPHB2_Y912]
5. FPMLNYKDIRK [CFAP221_Y798]
6. DPKFHYDNTAG [KDR_Y1214]
7. KFMVGYEMIAQ [GALT_Y339_L342I]

Given back:
1: 1.1; 2: 0.542; 3: 0.598; 4: 0.813; 5: 0.516; 6: 0.738; 7: 7.36

###

Molecular target: EPHB1 (UniProt P54762)
Sequence (P54762 whole entry, looked up): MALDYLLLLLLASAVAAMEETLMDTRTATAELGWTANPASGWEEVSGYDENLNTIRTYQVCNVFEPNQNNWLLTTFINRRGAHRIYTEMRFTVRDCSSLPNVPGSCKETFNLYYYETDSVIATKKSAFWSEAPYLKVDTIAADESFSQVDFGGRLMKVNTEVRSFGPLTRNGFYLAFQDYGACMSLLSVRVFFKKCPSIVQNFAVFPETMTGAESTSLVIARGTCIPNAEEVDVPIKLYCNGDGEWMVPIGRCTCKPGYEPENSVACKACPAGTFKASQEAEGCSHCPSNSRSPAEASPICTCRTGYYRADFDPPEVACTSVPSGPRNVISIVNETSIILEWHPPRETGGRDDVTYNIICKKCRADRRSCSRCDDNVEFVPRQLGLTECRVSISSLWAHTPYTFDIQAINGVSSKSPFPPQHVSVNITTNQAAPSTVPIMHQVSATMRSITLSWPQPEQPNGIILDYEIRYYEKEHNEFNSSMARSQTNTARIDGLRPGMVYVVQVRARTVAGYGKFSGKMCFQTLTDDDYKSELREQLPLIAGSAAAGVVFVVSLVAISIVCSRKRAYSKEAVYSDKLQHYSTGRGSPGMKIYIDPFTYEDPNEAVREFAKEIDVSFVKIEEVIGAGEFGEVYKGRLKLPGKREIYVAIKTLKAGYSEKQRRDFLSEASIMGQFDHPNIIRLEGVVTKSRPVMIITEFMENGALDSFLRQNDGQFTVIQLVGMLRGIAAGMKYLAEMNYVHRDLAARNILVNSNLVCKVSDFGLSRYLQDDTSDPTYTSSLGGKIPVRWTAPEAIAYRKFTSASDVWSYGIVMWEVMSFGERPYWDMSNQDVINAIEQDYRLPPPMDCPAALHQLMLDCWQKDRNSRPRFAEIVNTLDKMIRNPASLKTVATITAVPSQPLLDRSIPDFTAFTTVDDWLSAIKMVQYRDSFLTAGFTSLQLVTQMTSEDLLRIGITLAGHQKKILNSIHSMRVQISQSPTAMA
Test: phosphorylation enrichment, bacterial display (enrichment ratio); higher = better substrate or ligand; peptides without Tyr show the background
measure-name: phosphorylation enrichment
Give bare numbers.

Look up phosphorylation enrichment for the entries below, preserving their order.
1. QYKGKYLAKHN [CASK_Y712_D710G]
2. KLQKFYRKNPD [EHHADH_Y683_Q685K_YF]
3. EKQARYEIVEE [CDH5_Y223_V227E]
4. TLMNAYSSRSH [KIF11_Y231]
5. FQEKSYIKGTS [LCTL_Y331_L326F]
6. SYTDPYAQPSL [KMT2D_Y2378_P2382S]

Given back:
1: 0.705; 2: 0.348; 3: 0.582; 4: 0.436; 5: 0.33; 6: 0.583

Record GTFEDYVEGLR [MYL6_Y89_YF] ; system EPHB1 (UniProt P54762); phosphorylation enrichment = 0.534

###

Would you mind telling me the reported phosphorylation enrichment of each entry?
Biological target: EPHB1 (UniProt P54762)
Test: phosphorylation enrichment, bacterial display (enrichment ratio); higher = better substrate or ligand; peptides without Tyr show the background
One number for each entry.

RRIHSYRGFLW [VHL_Y112_H115Y_YF]; 0.343
RGVAHYILQTF [SLC39A4_Y359_T357A]; 0.718
NNDLCYWVPEL [IARS1_Y434]; 4.43
CTSIHYNYMCN [TP53_Y234_T231S]; 0.99
GIVTGYLVLKE [DNMT3B_Y588_A585V]; 0.684
AVEDQYYRVDC [FHL1_Y207_C209R]; 0.831
EALDFYGELRT [PTEN_Y155_V158L]; 0.771
STEAIYRRFSK [SH3PXD2B_Y42_YF]; 0.334
NGVSYYINLCQ [IGF2R_Y2025]; 0.787
PIGRKYKKVRF [F8_Y442_R437P]; 0.557

Look up phosphorylation enrichment for the entries below, preserving their order.
1. VPVPGYTKVPE [SPRR3_Y146_L149V]
2. RVFRDYVLKSA [HTATIP2_Y111_D108Y_YF]
3. GKVFIYHGSSL [ITGA7_Y458]
4. IDPFIYTPFGS [CYP3A4_Y432_YF]

Given back:
[0.365, 0.648, 0.655, 0.686]

Look up phosphorylation enrichment for the entries below, preserving their order.
1. EFNINYNNEPP [THG1L_Y228_L232P]
2. DPEGAYTTRGG [EPHA3_Y779_A777G]
3. EREYKYGAHKY [OAT_Y50_N54K]
4. HSFNSYTFPRL [PAK5_Y316_YF]

Given back:
[0.642, 0.497, 0.376, 0.802]

Look up phosphorylation enrichment for the entries below, preserving their order.
1. FGGLRYGFGVL [KRTAP20-2_Y13_YF]
2. LEHCQYVTQKV [ALDOB_Y204_E207Q]
3. SLAARYFNWVC [FLT4_Y1230_S1235C_YF]

Given back:
1: 0.443; 2: 0.818; 3: 0.61

Look up phosphorylation enrichment for the entries below, preserving their order.
1. SHRQDYLVGNK [GSTA1_Y147_G144R]
2. LEGAKYVSHGA [ASS1_Y113_R108L]

Given back:
1. 0.488
2. 0.682

Look up phosphorylation enrichment for the entries below, preserving their order.
1. RLLRGYRQDAF [HLA-A_Y137_F133L_YF]
2. INNIDYYKKTT [FGFR2_Y656]

Given back:
0.809
0.461

Look up phosphorylation enrichment for the entries below, preserving their order.
1. ISKKIYDTIHD [CTNNA3_Y614]
2. FSMGCYEFSLG [HMGCL_Y198_I200F_YF]
3. TTTQAYRVDER [PRKN_Y391]

Given back:
[0.351, 1.12, 0.473]
